- Tested on: MCF-7 cells
- assay.text: Antiproliferation assay (cell counting, 48 h) in MCF-7 breast cancer cells
- Format: cell-based, human
- run.conditions: Homo sapiens, MCF7; MCF-7 cells, 48 h incubation, cell counting
Rule: measured IC50 below 10 µM gets TRUE; anything equal to or greater than 10 µM gets FALSE.

Answered examples (5):
1) COC(=O)[C@]1(C)CCC[C@]2(C)c3cc(O)c(C(=O)/C=C/c4cnc5ccccc5c4)cc3CCC12 (stereo partly drawn) [Compound 39] ... FALSE
2) COC(=O)[C@]1(C)CCC[C@]2(C)c3cc(O)c(C(=O)/C=C/c4ccc(Br)s4)cc3CCC12 (stereo partly drawn) [Compound 45] ... FALSE
3) COC(=O)[C@]1(C)CCC[C@]2(C)c3cc(O)c(C(C)=O)cc3CCC12 (stereo partly drawn) [Compound 28] ... FALSE
4) COC(=O)[C@]1(C)CCC[C@]2(C)c3cc(O)c(/C=C/C(=O)c4ccccn4)cc3CCC12 (stereo partly drawn) [Compound 49] ... FALSE
5) COC(=O)[C@]1(C)CCC[C@]2(C)c3cc(O)c(/C=C/C(=O)c4ccc(Br)s4)cc3CCC12 (stereo partly drawn) [Compound 53] ... FALSE

-- ask Does this molecule meet the criterion IC50 < 10 µM? COC(=O)[C@]1(C)CCC[C@]2(C)c3cc(O)c(C(=O)/C=C/c4cccnc4)cc3CCC12 (stereo partly drawn) [Compound 33]
-- reply TRUE

-- ask Does this molecule meet the criterion IC50 < 10 µM? COC(=O)[C@]1(C)CCC[C@]2(C)c3cc(O)c(C(=O)/C=C/c4ccsc4)cc3CCC12 (stereo partly drawn) [Compound 44]
-- reply TRUE

-- ask Does this molecule meet the criterion IC50 < 10 µM? COC(=O)[C@]1(C)CCC[C@]2(C)c3cc(O)c(C(=O)/C=C/c4ccc5ccccc5n4)cc3CCC12 (stereo partly drawn) [Compound 38]
-- reply TRUE
